# target_of_assay: Peroxisome proliferator-activated receptor delta (Homo sapiens)
# procedure_summary: Agonist activity at human PPARdelta expressed in HepG2 cells co-transfected with PPRE3-TK-luc assessed as beta-galactosidase activity after 20 to 22 hrs by luciferase based transactivation assay
pEC50: −log10 of the molar value.
Parameter threshold = 6. Response is yes when pEC50 meets or exceeds it, else no.

[[record]]
compound = "C/C(=N\\OCc1sc(-c2ccc(C(F)(F)F)cc2)nc1C)c1ccc(OCC(=O)O)c(C)c1"
qualitative_label = "yes"

[[record]]
compound = "C/C(=N\\OCc1nc(-c2ccc(C)cc2)oc1C)c1ccc(OCC(=O)O)c(C)c1"
qualitative_label = "yes"

[[record]]
compound = "CC(C)(Oc1ccc(CCNC(=O)c2ccc(Cl)cc2)cc1)C(=O)O [BEZAFIBRATE]"
qualitative_label = "no"


====

# target_of_assay: Peroxisome proliferator-activated receptor alpha (Homo sapiens)
# procedure_summary: Agonist activity at human PPARalpha expressed in HepG2 cells co-transfected with PPRE3-TK-luc assessed as beta-galactosidase activity after 20 to 22 hrs by luciferase based transactivation assay relative to WY-14643
# Type: functional, cell-based
endpoint_label: Emax (%)

[[record]]
smiles_representation = "CCC/C(=N\\OCc1sc(-c2ccc(C(F)(F)F)cc2)nc1C)c1ccc(OCC(=O)O)c(C)c1"
endpoint_label = "Emax"
result_value = 58.7

[[record]]
smiles_representation = "CC/C(=N\\OCc1nc(-c2ccc(C)cc2)oc1C)c1ccc(OCC(=O)O)cc1"
endpoint_label = "Emax"
result_value = 68.5

[[record]]
smiles_representation = "C/C(=N\\OCc1sc(-c2ccc(C(F)(F)F)cc2)nc1C)c1ccc(OCC(=O)O)cc1"
endpoint_label = "Emax"
result_value = 86.2

[[record]]
smiles_representation = "CC/C(=N\\OCc1sc(-c2ccc(C(F)(F)F)cc2)nc1C)c1ccc(OCC(=O)O)cc1"
endpoint_label = "Emax"
result_value = 97.5

[[record]]
smiles_representation = "C/C(=N\\OCc1nc(-c2ccccc2)oc1C)c1ccc(OCC(=O)O)cc1"
endpoint_label = "Emax"
result_value = 58.8

[[record]]
smiles_representation = "CC/C(=N\\OCc1nc(-c2ccccc2)oc1C)c1ccc(OCC(=O)O)cc1"
endpoint_label = "Emax"
result_value = 42.5

[[record]]
smiles_representation = "Cc1ccc(-c2nc(CO/N=C(/c3ccc(OCC(=O)O)c(C)c3)C3CCCCC3)c(C)o2)cc1"
endpoint_label = "Emax"
result_value = 14.1

[[record]]
smiles_representation = "Cc1cc(SCc2sc(-c3ccc(C(F)(F)F)cc3)nc2C)ccc1OCC(=O)O"
endpoint_label = "Emax"
result_value = 76.9

[[record]]
smiles_representation = "C/C(=N\\OCc1nc(-c2ccccc2)oc1C)c1ccc(OCC(=O)O)c(C)c1"
endpoint_label = "Emax"
result_value = 84.5

[[record]]
smiles_representation = "CC/C(=N\\OCc1nc(-c2ccccc2)oc1C)c1ccc(OCC(=O)O)c(C)c1"
endpoint_label = "Emax"
result_value = 56.4


====

# target_of_assay: Peroxisome proliferator-activated receptor alpha (Homo sapiens) (UniProt Q07869)
# Sequence (Q07869 whole entry): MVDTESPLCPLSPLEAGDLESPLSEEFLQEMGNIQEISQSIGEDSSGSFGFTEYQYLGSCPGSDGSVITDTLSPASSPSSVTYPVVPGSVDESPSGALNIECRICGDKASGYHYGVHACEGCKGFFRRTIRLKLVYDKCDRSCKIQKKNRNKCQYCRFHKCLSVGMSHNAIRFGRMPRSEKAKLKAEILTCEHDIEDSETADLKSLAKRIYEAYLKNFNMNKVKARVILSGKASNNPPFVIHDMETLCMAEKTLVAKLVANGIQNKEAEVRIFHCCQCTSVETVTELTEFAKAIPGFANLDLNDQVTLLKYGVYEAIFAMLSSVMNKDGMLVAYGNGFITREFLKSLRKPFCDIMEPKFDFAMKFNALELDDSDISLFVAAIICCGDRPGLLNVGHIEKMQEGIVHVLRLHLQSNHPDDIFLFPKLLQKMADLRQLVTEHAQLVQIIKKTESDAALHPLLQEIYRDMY
# procedure_summary: Agonist activity at human PPARalpha expressed in HepG2 cells co-transfected with PPRE3-TK-luc assessed as beta-galactosidase activity after 20 to 22 hrs by luciferase based transactivation assay relative to WY-14643
# Assay type: functional, cell-based
The following ranges of Emax define the classes used here: small value: < 30%; mid value: ≥ 30% and < 70%; large value: ≥ 70%

[[record]]
smiles_representation = "C/C(=N\\OCc1nc(-c2ccc(C)cc2)oc1C)c1ccc(OCC(=O)O)cc1"
qualitative_label = "mid value"

[[record]]
smiles_representation = "Cc1cc(/C(=N/OCc2sc(-c3ccc(C(F)(F)F)cc3)nc2C)C2CCCCC2)ccc1OCC(=O)O"
qualitative_label = "mid value"

[[record]]
smiles_representation = "CC/C(=N\\OCc1nc(-c2ccc(C)cc2)oc1C)c1ccc(OCC(=O)O)c(C)c1"
qualitative_label = "large value"

[[record]]
smiles_representation = "C/C(=N\\OCc1nc(-c2ccc(C)cc2)oc1C)c1ccc(OCC(=O)O)c(C)c1"
qualitative_label = "mid value"

[[record]]
smiles_representation = "CC/C(=N\\OCc1sc(-c2ccc(C(F)(F)F)cc2)nc1C)c1ccc(OCC(=O)O)c(C)c1"
qualitative_label = "large value"

[[record]]
smiles_representation = "CCC/C(=N\\OCc1nc(-c2ccc(C)cc2)oc1C)c1ccc(OCC(=O)O)c(C)c1"
qualitative_label = "mid value"

[[record]]
smiles_representation = "C/C(=N\\OCc1sc(-c2ccc(C(F)(F)F)cc2)nc1C)c1ccc(OCC(=O)O)c(C)c1"
qualitative_label = "large value"

[[record]]
smiles_representation = "CCC/C(=N\\OCc1nc(-c2ccccc2)oc1C)c1ccc(OCC(=O)O)c(C)c1"
qualitative_label = "small value"

[[record]]
smiles_representation = "Cc1cc(/C(=N/OCc2nc(-c3ccccc3)oc2C)C2CCCCC2)ccc1OCC(=O)O"
qualitative_label = "small value"


====

# target_of_assay: Peroxisome proliferator-activated receptor alpha (Homo sapiens)
# procedure_summary: Agonist activity at human PPARalpha expressed in HepG2 cells co-transfected with PPRE3-TK-luc assessed as beta-galactosidase activity after 20 to 22 hrs by luciferase based transactivation assay
endpoint_label: EC50

[[record]]
smiles_representation = "C/C(=N\\OCc1sc(-c2ccc(C(F)(F)F)cc2)nc1C)c1ccc(OCC(=O)O)c(C)c1"
result_value = "8 nM"

[[record]]
smiles_representation = "C/C(=N\\OCc1nc(-c2ccccc2)oc1C)c1ccc(OCC(=O)O)c(C)c1"
result_value = "500 nM"

[[record]]
smiles_representation = "CC/C(=N\\OCc1sc(-c2ccc(C(F)(F)F)cc2)nc1C)c1ccc(OCC(=O)O)c(C)c1"
result_value = "120 nM"

[[record]]
smiles_representation = "Cc1cc(/C(=N/OCc2sc(-c3ccc(C(F)(F)F)cc3)nc2C)C2CCCCC2)ccc1OCC(=O)O"
result_value = "1600 nM"

[[record]]
smiles_representation = "C/C(=N\\OCc1nc(-c2ccc(C)cc2)oc1C)c1ccc(OCC(=O)O)c(C)c1"
result_value = "150 nM"


====

# target_of_assay: Peroxisome proliferator-activated receptor delta (Homo sapiens) (UniProt Q03181)
# Sequence (whole entry): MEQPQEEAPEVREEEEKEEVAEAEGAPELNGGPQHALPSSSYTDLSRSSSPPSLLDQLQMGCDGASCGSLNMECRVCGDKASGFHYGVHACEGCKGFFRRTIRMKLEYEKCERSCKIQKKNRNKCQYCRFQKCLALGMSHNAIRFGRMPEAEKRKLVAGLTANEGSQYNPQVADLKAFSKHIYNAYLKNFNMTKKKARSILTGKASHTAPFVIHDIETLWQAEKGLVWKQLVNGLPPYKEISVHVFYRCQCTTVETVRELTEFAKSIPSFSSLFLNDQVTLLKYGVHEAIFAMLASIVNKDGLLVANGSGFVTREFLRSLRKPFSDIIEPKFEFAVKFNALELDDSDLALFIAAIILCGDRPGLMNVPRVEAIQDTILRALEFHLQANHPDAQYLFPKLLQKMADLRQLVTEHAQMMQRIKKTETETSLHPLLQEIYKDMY
# procedure_summary: Agonist activity at human PPARdelta expressed in HepG2 cells co-transfected with PPRE3-TK-luc assessed as beta-galactosidase activity after 20 to 22 hrs by luciferase based transactivation assay relative to GW-501516
# Assay type: functional, cell-based
# key: entry, value: Emax
endpoint_label: Emax (%)

[[record]]
smiles_representation = "Cc1cc(/C(=N/OCc2sc(-c3ccc(C(F)(F)F)cc3)nc2C)C2CCCCC2)ccc1OCC(=O)O"
target_of_assay = "Peroxisome proliferator-activated receptor delta (Homo sapiens) (UniProt Q03181)"
result_value = 98.7

[[record]]
smiles_representation = "CC/C(=N\\OCc1sc(-c2ccc(C(F)(F)F)cc2)nc1C)c1ccc(OCC(=O)O)c(C)c1"
target_of_assay = "Peroxisome proliferator-activated receptor delta (Homo sapiens) (UniProt Q03181)"
result_value = 61.9

[[record]]
smiles_representation = "C/C(=N\\OCc1sc(-c2ccc(C(F)(F)F)cc2)nc1C)c1ccc(OCC(=O)O)c(C)c1"
target_of_assay = "Peroxisome proliferator-activated receptor delta (Homo sapiens) (UniProt Q03181)"
result_value = 90.1

[[record]]
smiles_representation = "CCC/C(=N\\OCc1nc(-c2ccc(C)cc2)oc1C)c1ccc(OCC(=O)O)c(C)c1"
target_of_assay = "Peroxisome proliferator-activated receptor delta (Homo sapiens) (UniProt Q03181)"
result_value = 46.8

[[record]]
smiles_representation = "C/C(=N\\OCc1nc(-c2ccc(C)cc2)oc1C)c1ccc(OCC(=O)O)c(C)c1"
target_of_assay = "Peroxisome proliferator-activated receptor delta (Homo sapiens) (UniProt Q03181)"
result_value = 67.6

[[record]]
smiles_representation = "C/C(=N\\OCc1nc(-c2ccc(C)cc2)oc1C)c1ccc(OCC(=O)O)cc1"
target_of_assay = "Peroxisome proliferator-activated receptor delta (Homo sapiens) (UniProt Q03181)"
result_value = 48.1

[[record]]
smiles_representation = "C/C(=N\\OCc1nc(-c2ccccc2)oc1C)c1ccc(OCC(=O)O)cc1"
target_of_assay = "Peroxisome proliferator-activated receptor delta (Homo sapiens) (UniProt Q03181)"
result_value = 52.1

[[record]]
smiles_representation = "CCC/C(=N\\OCc1sc(-c2ccc(C(F)(F)F)cc2)nc1C)c1ccc(OCC(=O)O)c(C)c1"
target_of_assay = "Peroxisome proliferator-activated receptor delta (Homo sapiens) (UniProt Q03181)"
result_value = 48.3

[[record]]
smiles_representation = "Cc1ccc(-c2nc(CO/N=C(/c3ccc(OCC(=O)O)c(C)c3)C3CCCCC3)c(C)o2)cc1"
target_of_assay = "Peroxisome proliferator-activated receptor delta (Homo sapiens) (UniProt Q03181)"
result_value = 56.6

[[record]]
smiles_representation = "Cc1cc(/C(=N/OCc2nc(-c3ccccc3)oc2C)C2CCCCC2)ccc1OCC(=O)O"
target_of_assay = "Peroxisome proliferator-activated receptor delta (Homo sapiens) (UniProt Q03181)"
result_value = 58.8

[[record]]
smiles_representation = "CC/C(=N\\OCc1nc(-c2ccccc2)oc1C)c1ccc(OCC(=O)O)c(C)c1"
target_of_assay = "Peroxisome proliferator-activated receptor delta (Homo sapiens) (UniProt Q03181)"
result_value = 72.3

[[record]]
smiles_representation = "CC/C(=N\\OCc1nc(-c2ccc(C)cc2)oc1C)c1ccc(OCC(=O)O)cc1"
target_of_assay = "Peroxisome proliferator-activated receptor delta (Homo sapiens) (UniProt Q03181)"
result_value = 49.2

[[record]]
smiles_representation = "C/C(=N\\OCc1sc(-c2ccc(C(F)(F)F)cc2)nc1C)c1ccc(OCC(=O)O)cc1"
target_of_assay = "Peroxisome proliferator-activated receptor delta (Homo sapiens) (UniProt Q03181)"
result_value = 60.6

[[record]]
smiles_representation = "CC/C(=N\\OCc1nc(-c2ccccc2)oc1C)c1ccc(OCC(=O)O)cc1"
target_of_assay = "Peroxisome proliferator-activated receptor delta (Homo sapiens) (UniProt Q03181)"
result_value = 46.4

[[record]]
smiles_representation = "C/C(=N\\OCc1nc(-c2ccccc2)oc1C)c1ccc(OCC(=O)O)c(C)c1"
target_of_assay = "Peroxisome proliferator-activated receptor delta (Homo sapiens) (UniProt Q03181)"
result_value = 74.5

[[record]]
smiles_representation = "CC/C(=N\\OCc1sc(-c2ccc(C(F)(F)F)cc2)nc1C)c1ccc(OCC(=O)O)cc1"
target_of_assay = "Peroxisome proliferator-activated receptor delta (Homo sapiens) (UniProt Q03181)"
result_value = 41.4

[[record]]
smiles_representation = "CCC/C(=N\\OCc1nc(-c2ccccc2)oc1C)c1ccc(OCC(=O)O)c(C)c1"
target_of_assay = "Peroxisome proliferator-activated receptor delta (Homo sapiens) (UniProt Q03181)"
result_value = 51.7

[[record]]
smiles_representation = "CC/C(=N\\OCc1nc(-c2ccc(C)cc2)oc1C)c1ccc(OCC(=O)O)c(C)c1"
target_of_assay = "Peroxisome proliferator-activated receptor delta (Homo sapiens) (UniProt Q03181)"
result_value = 56.3

